# protocol: Antiproliferative activity against human derived M5b Fab type Acute myeloid leukemic cells assessed as reduction in cell viability incubated for 48 hr by CellTiter-Glo assay
# Format: functional, cell-based
# particulars: Leukemia cell
reported endpoint: IC50 (nM)
A number alone suffices; assume nM.

## Input Quick one: IC50 for C1=N/C2=N/c3ccc(OCCN4CCCC4)c(c3)COC/C=C/COCc3cccc(c3)C(=C1)N2 [PACRITINIB] ?
## Output 240

====

# protocol: Antiproliferative activity against relapsed human derived M5b Fab type Acute myeloid leukemic cells harboring FLT3-ITD mutant assessed as reduction in cell viability incubated for 48 hr by CellTiter-Glo assay
# Format: functional, cell-based
# particulars: Leukemia cell
reported endpoint: IC50 (nM)
Please give a number only; it is taken to be in nM.

## Input Value lookup for IC50; key = `C1=N/C2=N/c3ccc(OCCN4CCCC4)c(c3)COC/C=C/COCc3cccc(c3)C(=C1)N2`
## Output 250
